system: BTK (Homo sapiens, UniProt Q06187)
Sequence (Q06187 402-655 limits assumed): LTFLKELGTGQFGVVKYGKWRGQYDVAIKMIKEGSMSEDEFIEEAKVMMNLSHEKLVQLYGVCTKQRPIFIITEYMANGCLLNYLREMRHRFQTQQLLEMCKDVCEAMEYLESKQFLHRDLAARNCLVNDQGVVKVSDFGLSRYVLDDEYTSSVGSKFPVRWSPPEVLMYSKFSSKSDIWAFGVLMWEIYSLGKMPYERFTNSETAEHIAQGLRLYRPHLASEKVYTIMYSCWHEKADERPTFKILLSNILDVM
assay.notes: biochemical
test.context: read-out: BTK inhibition (%), 0.75 uM BTK, […] probe 3l, 15 min preincubation
Returns one of yes (1) or no (0); yes (1) when inhibition at 10 µM is >= 10%.

[
  {
    "molecule": "O=C(Nc1cc(C(F)(F)F)cc(C(F)(F)F)c1)c1cc(Cl)ccc1O",
    "category": "yes (1)"
  },
  {
    "molecule": "CN1CCN(Cc2ccc(Nc3ncc(Cl)c(Nc4ccccc4S(=O)(=O)N(C)C)n3)cc2)CC1",
    "category": "yes (1)"
  },
  {
    "molecule": "C[C@@H]1CC[C@H]2[C@@H](C)C(O)O[C@@H]3O[C@@]4(C)CC[C@@H]1[C@]32OO4 (some centres unmarked)",
    "category": "no (0)"
  },
  {
    "molecule": "CN1CCC(CNc2ccc3ncc(-c4cccc(OC(F)(F)F)c4)n3n2)CC1",
    "category": "yes (1)"
  },
  {
    "molecule": "COc1ccc(CCCOC(Cn2ccnc2)c2ccc(OC)cc2)cc1 (centres unmarked)",
    "category": "no (0)"
  },
  {
    "molecule": "CCCCCN(C)CCC(O)(P(=O)(O)O)P(=O)(O)O",
    "category": "no (0)"
  }
]

## Input Test whether the molecule CC1(C)C=Cc2c(ccc3c2OC[C@@H](c2ccc(O)cc2O)C3)O1 records inhibition at 10 µM of 10% or higher.
## Output yes (1)

## Input Test whether the molecule C[C@@H](Oc1ccc2[nH]nc(/C=C/c3cnn(CCO)c3)c2c1)c1c(Cl)cncc1Cl records inhibition at 10 µM of 10% or higher.
## Output yes (1)

## Input Test whether the molecule Clc1ccc(C(Cn2ccnc2)OCc2ccc(Sc3ccccc3)cc2)c(Cl)c1 (centres unmarked) records inhibition at 10 µM of 10% or higher.
## Output yes (1)

## Input Test whether the molecule O=P(O)(O)OC(CO)CO records inhibition at 10 µM of 10% or higher.
## Output yes (1)

## Input Test whether the molecule O=C(Nc1ccc(S(=O)(=O)Nc2ccccc2Cl)c(Cl)c1)c1ccccn1 records inhibition at 10 µM of 10% or higher.
## Output no (0)

## Input Test whether the molecule CC1(C)CC[C@]2(C(=O)O)[C@H](O)C[C@]3(C)C(=CC[C@@H]4[C@@]5(C)CC[C@H](O)C(C)(C)[C@@H]5CC[C@]43C)[C@@H]2C1 records inhibition at 10 µM of 10% or higher.
## Output yes (1)

## Input Test whether the molecule O=C(c1ccc(/C=C/c2n[nH]c3ccccc23)cc1)N1CCNCC1 records inhibition at 10 µM of 10% or higher.
## Output yes (1)

## Input Test whether the molecule Cc1ncc([N+](=O)[O-])n1CC(O)CCl (centres unmarked) records inhibition at 10 µM of 10% or higher.
## Output no (0)

###

Kindly state inhibition at 10 µM for each of the entries shown.
system: BTK (Homo sapiens)
assay.notes: biochemical
test.context: read-out: BTK inhibition (%), 0.75 uM BTK, […] probe 3l, 15 min preincubation
One number for each entry, in %.

Completed entries (count: 7):
[
  {
    "compound": "CNS(=O)(=O)CC1CCC(N(C)c2ncnc3[nH]ccc23)CC1 (centres unmarked)",
    "system": "BTK (Homo sapiens)",
    "experimental.value": 9.7
  },
  {
    "compound": "O=c1cc(-c2ccc(O)c(O)c2)oc2c([C@@H]3O[C@H](CO)[C@@H](O)[C@H](O)[C@H]3O)c(O)cc(O)c12",
    "system": "BTK (Homo sapiens)",
    "experimental.value": -22.4
  },
  {
    "compound": "CN(C)Cc1ccc(S(=O)(=O)n2ccc(/C=C/C(=O)NO)c2)cc1",
    "system": "BTK (Homo sapiens)",
    "experimental.value": 9.3
  },
  {
    "compound": "C[C@H](NC(=O)[C@@H](O)c1cc(F)cc(F)c1)C(=O)N[C@@H]1C(=O)N(C)c2ccccc2-c2ccccc21",
    "system": "BTK (Homo sapiens)",
    "experimental.value": 6.2
  },
  {
    "compound": "C[C@H](NC(=O)c1c(N)nn2cccnc12)c1cc2cccc(C#Cc3cnn(C)c3)c2c(=O)n1-c1ccccc1",
    "system": "BTK (Homo sapiens)",
    "experimental.value": 20
  },
  {
    "compound": "Nc1ncnc2c1ncn2C(C=O)OC(C=O)CO (centres unmarked)",
    "system": "BTK (Homo sapiens)",
    "experimental.value": 0.8
  },
  {
    "compound": "N=C1S/C(=C\\c2ccc(-c3ccc4c(c3)C(=O)NC4=O)o2)C(=O)N1c1ccc(Br)cc1",
    "system": "BTK (Homo sapiens)",
    "experimental.value": 27
  }
]

Next item in the queue.
# compound Cn1cc(-c2cc(Oc3cc(F)c(NC(=O)C4(C(=O)Nc5ccccc5)CC4)cc3F)ccn2)cn1 ; its inhibition at 10 µM = 88.8

###

system: BTK (Homo sapiens, UniProt Q06187)
assay.notes: biochemical
test.context: read-out: BTK inhibition (%), 0.75 uM BTK, […] probe 3l, 15 min preincubation
Kindly state inhibition at 10 µM for each of the entries shown.
One number for each entry, in %.

Completed entries (count: 4):
[
  {
    "compound": "CCCC(=O)Nc1ccc(OCC(O)CNC(C)C)c(C(C)=O)c1 (stereo not drawn)",
    "unit.annotation": "%",
    "inhibition at 10 µM": -12.5
  },
  {
    "compound": "COc1cc2oc(-c3ccc(O)cc3)cc(=O)c2c(O)c1[C@@H]1O[C@H](CO)[C@@H](O)[C@H](O)[C@H]1O[C@@H]1O[C@H](CO)[C@@H](O)[C@H](O)[C@H]1O",
    "unit.annotation": "%",
    "inhibition at 10 µM": -15.4
  },
  {
    "compound": "Cc1cc(C)c(CN2CCc3c(Cl)cc(-c4c(C)noc4C)c(Cl)c3C2=O)c(=O)[nH]1",
    "unit.annotation": "%",
    "inhibition at 10 µM": -8.5
  },
  {
    "compound": "C[C@H](CCC(=O)O)[C@H]1CC[C@H]2[C@@H]3CC[C@@H]4C[C@H](O)CC[C@]4(C)[C@H]3C[C@H](O)[C@]12C",
    "unit.annotation": "%",
    "inhibition at 10 µM": 11.7
  }
]

List the reported inhibition at 10 µM of each compound below.
1. C[C@@H]1[C@H](O)[C@@H](C)/C=C/C=C/C=C/C=C/C=C/C=C/C=C/[C@H](O[C@@H]2O[C@H](C)[C@@H](O)[C@H](N)[C@@H]2O)C[C@@H]2O[C@](O)(C[C@@H](O)C[C@@H](O)[C@H](O)CC[C@@H](O)C[C@@H](O)CC(=O)O[C@H]1C)C[C@H](O)[C@H]2C(=O)O
2. O=C(C1CCCCC1)N1CC(=O)N2CCc3ccccc3C2C1 (stereo not drawn)
3. Cc1cn([C@H]2C=C[C@@H](CO)O2)c(=O)[nH]c1=O
4. C=CC(=O)N1CCC(Oc2cc3c(Nc4ccc(Cl)c(Cl)c4F)ncnc3cc2OC)CC1
5. CC(=O)Oc1cc(C)c(OC(C)=O)c2ccccc12

## Output
1: -3.1; 2: -5.4; 3: 2.3; 4: 119; 5: -25.7

List the reported inhibition at 10 µM of each compound below.
1. COc1ccc2c3c1O[C@H]1C[C@@H](O)C=C[C@@]31CCN(C)C2
2. CC1CCN(CC[C@H]2CCCN2S(=O)(=O)c2cccc(O)c2)CC1

## Output
-17.1
7.8

List the reported inhibition at 10 µM of each compound below.
1. Cc1ccc(-c2csc(NC(=O)c3ccccc3)n2)c(C)c1
2. CN1CCN(Cc2ccc(NC(=O)Nc3ccc(Oc4cc(NC(=O)C5CC5)ncn4)cc3)cc2C(F)(F)F)CC1

## Output
1: 60.2; 2: 79.5

List the reported inhibition at 10 µM of each compound below.
1. CCCNS(=O)(=O)Nc1ncnc(OCCOc2ncc(Br)cn2)c1-c1ccc(Br)cc1
2. O=C1c2cccc3c2[C@H](CCC3)CN1[C@@H]1CN2CCC1CC2

## Output
1: 10; 2: 4.3

###

system: BTK (Homo sapiens, UniProt Q06187)
assay.notes: biochemical
test.context: read-out: BTK inhibition (%), 0.75 uM BTK, […] probe 3l, 15 min preincubation
assay.metric: inhibition at 10 µM
Enter the number, and then the unit.

Completed entries (count: 4):
[
  {
    "compound": "O=C(CCc1ccc(O)cc1)c1c(O)cc(O)cc1O[C@@H]1O[C@H](CO)[C@@H](O)[C@H](O)[C@H]1O",
    "experimental.value": "4.7%"
  },
  {
    "compound": "C=C(C)C1CC=C(/C=N/O)CC1 (centres unmarked)",
    "experimental.value": "-2.3%"
  },
  {
    "compound": "Clc1ccc(N/N=C(\\c2ccccc2)c2ccccn2)nc1",
    "experimental.value": "6.2%"
  },
  {
    "compound": "CC/C(=C(/c1ccc(/C=C/C(=O)O)cc1)c1ccc2[nH]ncc2c1)c1ccc(F)cc1Cl",
    "experimental.value": "81.1%"
  }
]

Next item in the queue.
# compound O=C(O)CCc1c[nH]c2ccccc12 ; its inhibition at 10 µM = -34.2%
